molecular target: cleaved SPAK (human SPAK CCT domain, residues 441-545, tags removed with TEV protease) (human); assay: waveRAPID, heterogeneous ligand model, second site
Where no end group is shown, it is not given here. The star is where a group is joined. Biotin = O=C1N[C@H]2[C@H](CS[C@H]2CCCCC(=O)*)N1
quantity_kind: Kd (nM)

{"columns": ["binder", "measured"],
 "data": [
  ["{Biotin-C6}-SEEGKPQLVGRFQVTSSK [Biotin-C6-SEEGKPQLVGRFQVTSSK (N-terminally biotinylated 18-mer RFQV peptide derived from WNK4)]", 4.25]
]}

From: paper doi:10.1101/2021.08.19.456998
